Experiment: tissue drug levels of free and liposomal vincristine (radioimmunoassay)
Format: in vivo, CD2 F1 mice
Settings: mouse, liver, iv, 1 mg/kg, liver; 1.0 mg; 4h; read-out: vincristine level, liver
Procedure: CD2 F1 mice were administered vincristine as a free drug at a dose of 1 mg kg^-1 and liposomal entrapped vincristine at a dose of 1 mg kg^-1 and 5 mg kg^-1 via a lateral tail vein. At sequential time points, four mice in each treatment group were sacrificed and specific tissues were isolated and assayed for drug levels by radioimmunoassay as adapted in our laboratories.
quantity measured: concentration at 4 h (ng/g)
Answers are plain numbers, in ng/g.

Task: In one line, give reported concentration at 4 h of the entry CC[C@]1(O)C[C@H]2CN(CCc3c([nH]c4ccccc34)[C@@](C(=O)OC)(c3cc4c(cc3OC)N(C=O)[C@H]3[C@@](O)(C(=O)OC)[C@H](OC(C)=O)[C@]5(CC)C=CCN6CC[C@]43[C@@H]65)C2)C1 [free vincristine, vincristine] .
Result: 10

Attribution: patent US4952408A
